# target desc: IL-23 (p40/p19 heterodimer), endogenous from activated monocytes (Homo sapiens, UniProt P29460;Q9NPF7 SEQ:23-328,SEQ:20-189)
# Sequence (P29460 23-328, chain 1 of 2): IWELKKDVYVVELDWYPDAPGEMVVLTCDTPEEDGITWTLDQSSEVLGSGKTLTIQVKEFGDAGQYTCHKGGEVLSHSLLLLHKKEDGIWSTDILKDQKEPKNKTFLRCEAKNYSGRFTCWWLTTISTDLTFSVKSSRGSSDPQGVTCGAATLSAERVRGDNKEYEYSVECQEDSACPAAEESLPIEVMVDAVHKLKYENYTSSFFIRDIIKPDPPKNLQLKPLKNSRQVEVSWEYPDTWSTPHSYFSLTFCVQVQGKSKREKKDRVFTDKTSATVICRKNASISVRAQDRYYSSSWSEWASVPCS
# Sequence (Q9NPF7 20-189, chain 2 of 2): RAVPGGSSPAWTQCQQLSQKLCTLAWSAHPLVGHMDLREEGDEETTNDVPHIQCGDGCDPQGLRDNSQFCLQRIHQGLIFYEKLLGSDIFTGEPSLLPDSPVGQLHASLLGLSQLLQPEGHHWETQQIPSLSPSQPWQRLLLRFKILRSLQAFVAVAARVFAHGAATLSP
# test name: cell_activity; STAT3 inhibition assay; compensatory pair restores activity; IL-23 source not stated for this assay
property measured: pIC50
On this scale, pIC50 is minus log10 of a concentration expressed in M (mol/L).

# input binder: ARC32225 G2A/C30U (ssRNA, mixed 2'-OMe and 2'-F as parent [mixed 2'-OMe and 2'-F as parent (positions not given)]) RNA: AAGGAAAUCAGGCUUUAUCGGGCGCCGCUUCCUGUGCCAUCGUCCGAGAGUAGGUAGUCUGU ; wanted: its pIC50
9.30
